- Test system: Staph. aureus
- Experimental Details: In vitro antibacterial activity, two-fold serial dilution in Brain-Heart Infusion broth (MIC)
- Assay type: cell-based
- Test Settings: Staphylococcus aureus, anaerobic, overnight
Outcome Measure: MIC

| Compound | Outcome Measure | Recorded Result |
| --- | --- | --- |
| Cc1ccc(S(=O)(=O)NN=Cc2c[n+]([O-])c3ccccc3n2)cc1 [N, H, H, 4-CH3 C6 H4] | MIC | 25 µg/mL |
| O=S(=O)(NN=Cc1c[n+]([O-])c2ccccc2[n+]1[O-])c1ccc(F)cc1 [N → O, H, H, 4-FC6 H4] | MIC | 25 µg/mL |
| O=S(=O)(NN=Cc1c[n+]([O-])c2ccccc2[n+]1[O-])c1ccccc1 [N → O, H, H, C6 H5] | MIC | 100 µg/mL |
| Cc1ccc(S(=O)(=O)NN=Cc2c[n+]([O-])c3ccccc3[n+]2[O-])cc1 [N → O, H, H, 4-CH3 C6 H4] | MIC | 25 µg/mL |
| COc1ccc(S(=O)(=O)NN=Cc2c[n+]([O-])c3ccccc3n2)cc1 [N, H, H, 4-CH3 OC6 H4] | MIC | 12.5 µg/mL |
| CS(=O)(=O)NN=Cc1c[n+]([O-])c2ccccc2[n+]1[O-] [N → O, H, H, CH3] | MIC | 25 µg/mL |
